- ASSAYED TARGET: human TLR9 (Homo sapiens, UniProt Q9NR96)
- ASSAY SUMMARY: TLR9 inhibition reporter assay (HEK-Blue cells, SEAP reporter)
- STATED CONDITIONS: HEK-Blue cells overexpressing human TLR9, stimulated with ODN2006 5 nM, 22 hour incubation
pIC50: −log10 of the molar value.
OBSERVABLE: pIC50

Sample answers from the record:
1) COc1nc(-c2ccc(CN3CCN(C(C)C)CC3)cc2)cc2c1cc(-c1ccc(S(C)(=O)=O)cc1)n2C [Example 126]	5.90
2) Cc1nc(-c2ccc(N3CCN(C(C)C)CC3)cc2)cc2c1cc(-c1ccc(S(=O)(=O)N(C)C)cc1)n2C [Example 49]	5.17
3) CC(C)N1CCN(Cc2ccc(-c3cc4c(cc(-c5ccc(S(C)(=O)=O)cc5)n4C)c(C(C)(C)O)n3)cc2)CC1 [Example 125]	6.88
4) Cc1nc(-c2ccc(C3(O)CCN(C(C)C)CC3)cc2)cc2c1cc(-c1ccc(S(C)(=O)=O)cc1)n2C [Example 88]	6.94
5) COc1ccc(-c2c(C)[nH]c3cnc(C4CCN(C5CCN(C(=O)c6ccccc6)CC5)CC4)cc23)cc1OC [Example 14]	6.50

1. Cc1nc(-c2ccc(CN3CCN(CCC(C)(C)O)CC3)cc2)cc2c1cc(-c1ccc(S(C)(=O)=O)cc1)n2C [Example 60]
2. CCOC(=O)N1CCC(N2CCC(c3cc4c(cn3)cc(-c3ccc(OC)c(OC)c3)n4C)CC2)CC1 [Example 7]
Would you let me know which has the greater pIC50 value, 1 or 2 ? Identify your pick by its label.
1

I. COc1ccc(-c2cc3cnc(C4CCN(C(=O)CN5CCCCC5)CC4)cc3n2C)cc1OC [Example 25]
II. Cc1nc(-c2ccc(N3CCN(C4CCOCC4)CC3)c(F)c2)cc2c1cc(-c1ccc(S(C)(=O)=O)cc1)n2C [Example 71]
Returns the identifier with the smallest measured pIC50 among I and II . Use the label to indicate which entry you chose.
I

A. Cc1nc(-c2cc(F)c(C3(O)CCN(CC(C)C)CC3)cc2F)cc2c1cc(-c1ccc(S(C)(=O)=O)cc1)n2C [Example 94]
B. Cc1nc(-c2cc(F)c(N3CCN(CCCO)CC3)cc2F)cc2c1cc(-c1ccc(S(C)(=O)=O)cc1)n2C [Example 56]
Select one: A or B . Criterion: greater recorded pIC50. Lab note: record the label of whichever item you select.
A
(A: 6.84, B: 6.57)

* * *

- ASSAYED TARGET: human TLR9 (Homo sapiens, UniProt Q9NR96)
- Sequence (Q9NR96 26-1032): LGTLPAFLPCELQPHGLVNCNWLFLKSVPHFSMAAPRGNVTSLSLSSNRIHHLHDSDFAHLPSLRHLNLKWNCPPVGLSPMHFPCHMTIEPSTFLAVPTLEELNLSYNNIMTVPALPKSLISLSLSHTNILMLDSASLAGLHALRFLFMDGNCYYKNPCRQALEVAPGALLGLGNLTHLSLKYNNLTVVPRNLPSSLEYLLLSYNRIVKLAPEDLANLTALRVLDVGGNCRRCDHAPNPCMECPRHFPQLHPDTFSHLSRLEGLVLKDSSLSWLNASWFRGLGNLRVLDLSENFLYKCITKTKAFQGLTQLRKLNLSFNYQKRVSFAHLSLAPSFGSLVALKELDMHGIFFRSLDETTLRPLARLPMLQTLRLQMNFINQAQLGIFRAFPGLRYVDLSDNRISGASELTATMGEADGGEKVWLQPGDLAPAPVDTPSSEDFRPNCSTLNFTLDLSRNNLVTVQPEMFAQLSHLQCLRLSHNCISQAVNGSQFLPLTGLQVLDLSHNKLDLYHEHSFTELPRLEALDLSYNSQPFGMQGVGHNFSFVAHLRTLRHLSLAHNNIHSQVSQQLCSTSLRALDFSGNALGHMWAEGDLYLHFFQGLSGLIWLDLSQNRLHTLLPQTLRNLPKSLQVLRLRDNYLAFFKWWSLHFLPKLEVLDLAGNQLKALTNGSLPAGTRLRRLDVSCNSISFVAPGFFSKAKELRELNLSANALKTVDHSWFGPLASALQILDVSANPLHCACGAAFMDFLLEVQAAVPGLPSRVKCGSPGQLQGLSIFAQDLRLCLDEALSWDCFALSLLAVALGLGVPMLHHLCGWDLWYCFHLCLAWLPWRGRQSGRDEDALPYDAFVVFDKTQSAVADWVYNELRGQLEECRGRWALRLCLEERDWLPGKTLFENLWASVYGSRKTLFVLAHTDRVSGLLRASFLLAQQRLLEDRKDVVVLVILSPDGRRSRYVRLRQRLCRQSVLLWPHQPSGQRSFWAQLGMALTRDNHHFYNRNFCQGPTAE
- ASSAY SUMMARY: TLR9 inhibition reporter assay (HEK-Blue cells, SEAP reporter)
- STATED CONDITIONS: HEK-Blue cells overexpressing human TLR9, stimulated with ODN2006 5 nM, 22 hour incubation
OBSERVABLE: IC50 (nM)

// known answers, use as guide
1) Cc1nc(-c2cc(F)c(C3(O)CCN(C4CC4)CC3)cc2F)cc2c1cc(-c1ccc(S(C)(=O)=O)cc1)n2C	162
2) COc1ccc(-c2c(C)n(C)c3cnc(-c4ccc(N5CCN(C(C)C)CC5)cc4)cc23)cc1OC	170

1. Cc1nc(-c2ccc(N3CCN(CC(C)C)CC3)c(F)c2)cc2c1cc(-c1ccc(S(C)(=O)=O)cc1)n2C
2. CCOC(=O)N1CCC(N2CCC(c3cc4c(-c5ccc(OC)c(OC)c5)c(C)n(C)c4cn3)CC2)CC1
3. COc1ccc(-c2c(C)[nH]c3cnc(C4CCN(C(=O)CN5CCCC5)CC4)cc23)cc1OC
4. Cc1nc(-c2ccc(CN3CCN(CC(C)(C)O)CC3)cc2)cc2c1c(F)c(-c1ccc(S(C)(=O)=O)cc1)n2C
5. Cc1nc(-c2ccc(N3CCOCC3)cc2)cc2c1cc(-c1ccc(S(C)(=O)=O)cc1)n2C
// ranking: key=IC50, reverse=True Dear reader, please state the labels in the requested order.
5, 3, 1, 2, 4

* * *

- ASSAYED TARGET: human TLR8 (Homo sapiens, UniProt Q9NR97)
- Sequence (Q9NR97 27-1041): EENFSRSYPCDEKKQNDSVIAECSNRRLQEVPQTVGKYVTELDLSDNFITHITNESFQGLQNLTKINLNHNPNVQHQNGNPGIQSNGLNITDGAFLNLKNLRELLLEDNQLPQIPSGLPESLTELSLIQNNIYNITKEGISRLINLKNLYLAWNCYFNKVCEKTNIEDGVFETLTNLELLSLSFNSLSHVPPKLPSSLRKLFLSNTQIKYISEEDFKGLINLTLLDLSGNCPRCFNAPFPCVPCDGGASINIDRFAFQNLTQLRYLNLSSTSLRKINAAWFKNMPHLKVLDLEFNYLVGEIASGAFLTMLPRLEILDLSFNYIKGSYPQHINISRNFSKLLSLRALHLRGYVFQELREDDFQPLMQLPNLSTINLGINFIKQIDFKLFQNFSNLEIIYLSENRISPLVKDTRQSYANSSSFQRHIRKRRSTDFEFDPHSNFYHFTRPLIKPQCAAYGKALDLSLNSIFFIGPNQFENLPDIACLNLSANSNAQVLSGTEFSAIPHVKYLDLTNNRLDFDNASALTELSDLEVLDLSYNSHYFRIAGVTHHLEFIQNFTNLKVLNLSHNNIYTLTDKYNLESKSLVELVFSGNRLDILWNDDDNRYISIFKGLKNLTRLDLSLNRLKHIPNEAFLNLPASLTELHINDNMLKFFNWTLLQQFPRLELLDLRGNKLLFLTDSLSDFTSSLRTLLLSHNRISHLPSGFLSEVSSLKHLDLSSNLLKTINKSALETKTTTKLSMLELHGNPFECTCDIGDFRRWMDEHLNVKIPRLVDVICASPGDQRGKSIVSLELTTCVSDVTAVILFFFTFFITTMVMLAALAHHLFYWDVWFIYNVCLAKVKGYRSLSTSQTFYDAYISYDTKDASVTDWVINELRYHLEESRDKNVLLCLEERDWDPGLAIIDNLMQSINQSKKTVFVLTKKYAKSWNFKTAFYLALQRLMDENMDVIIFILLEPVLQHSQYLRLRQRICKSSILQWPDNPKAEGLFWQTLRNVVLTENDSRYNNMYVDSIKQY
- ASSAY SUMMARY: TLR8 inhibition reporter assay (HEK-Blue cells, SEAP reporter)
- STATED CONDITIONS: HEK-Blue cells overexpressing human TLR8, stimulated with R848 15.9 μM, 22 hour incubation
- Description: TLR7/8/9 Inhibition Reporter Assays HEK-Blue™-cells (Invivogen) overexpressing human TLR7, TLR8 or TLR9 receptors were used for screening inhibitors of these receptors using an inducible SEAP (secreted embryonic alkaline phosphatase) reporter gene under the control of the IFN-β minimal promoter fused to five NF-κB and AP-1-binding sites. […]
pIC50: −log10 of the molar value.
OBSERVABLE: pIC50

a. Cc1nc(-c2ccc(CN3CCC(C)(O)CC3)cc2)cc2c1cc(-c1ccc(S(C)(=O)=O)cc1)n2C [Example 59]
b. Cc1nc(-c2ccc(C3(O)CCN(C(C)C)CC3)c(F)c2)cc2c1cc(-c1ccc(S(C)(=O)=O)cc1)n2C [Example 107]
Between the two listed entries a and b , which has its pIC50 at the higher number? Lab log: write the label of the selected item as the result.
b
(b: 5.57, a: 4.76)

* * *

- ASSAYED TARGET: human TLR8 (Homo sapiens)
- ASSAY SUMMARY: TLR8 inhibition reporter assay (HEK-Blue cells, SEAP reporter)
- STATED CONDITIONS: HEK-Blue cells overexpressing human TLR8, stimulated with R848 15.9 μM, 22 hour incubation
OBSERVABLE: IC50 (µM)

Would you please look over these solved cases?
1. COc1ccc(-c2c(C)[nH]c3cnc(-c4ccc(N5CCN(C(C)C)CC5)cc4)cc23)cc1OC	29
2. COc1ccc(-c2cc3cnc(-c4ccc(N5CCN(C(C)C)CC5)cc4)cc3n2C)cc1OC	3.8

a. Cc1nc(-c2ccc(CN3CCN(CCC(C)(C)O)CC3)cc2)cc2c1c(F)c(-c1ccc(S(C)(=O)=O)cc1)n2C
b. COc1ccc(-c2c(C)[nH]c3cnc(C4CCN(c5cc(C)nc(C)c5)CC4)cc23)cc1OC
c. COCCN1C2CCC1CN(c1ccc(-c3cc4c(cc(-c5ccc(S(C)(=O)=O)cc5)n4C)c(C)n3)cc1F)C2
Write the entries in order, lowest recorded IC50 first. Answer with the labels in sequence, matching the requested order.
a, c, b
(a: 2.1 µM, c: 9.6 µM, b: 23.3 µM)

* * *

- ASSAYED TARGET: human TLR8 (Homo sapiens, UniProt Q9NR97)
- Construct: host or cells: HEK-Blue cells
- ASSAY SUMMARY: TLR8 inhibition reporter assay (HEK-Blue cells, SEAP reporter)
- Assay type: cell-based
- STATED CONDITIONS: HEK-Blue cells overexpressing human TLR8, stimulated with R848 15.9 μM, 22 hour incubation
pIC50: −log10 of the molar value.
OBSERVABLE: pIC50

1. Cc1nc(-c2cc(F)c(N3CCNCC3)cc2F)cc2c1cc(-c1ccc(S(C)(=O)=O)cc1)n2C	5.57

a. Cc1nc(-c2cc(F)c(N3CC4CCC(C3)N4CCCO)cc2F)cc2c1cc(-c1ccc(S(C)(=O)=O)cc1)n2C
b. Cc1nc(-c2ccc([C@@]3(O)CCN(C(C)C)C(C)(C)C3)c(F)c2)cc2c1cc(-c1ccc(S(C)(=O)=O)cc1)n2C
// select label with min value of measured pIC50 from [ a , b ] Which one? Tell me its label.
a
(a: 5.02, b: 6.70)
